Provenance of the data: paper PMC9854762

System: C. violaceum CV026
Test: Quorum-sensing inhibition bioassay on Soft Top agar
Format: cell-based, Chromobacterium violaceum
Conditions: CV026 biosensor strain, sub-MIC
Method: The anti-QS potential of the tested compounds was explored as described. […] The signal diffusion zone diameter produced during the bacterial growth was measured in the presence of pyrazole and pyrazolo[1,5-a]pyrimidine derivatives and compared with the zone diameter of the violacein production by CV026.
Experimental endpoint: Concentration at which anti-QS activity (visible halo zone) was observed

{"Compound": "CCOC(=O)c1ccc(N=Nc2c(N)nn3c(C)cc(C)nc23)cc1 [Compound 6]", "Tested system": "C. violaceum CV026", "Reported measurement": "0.125 µg/mL"}
{"Compound": "CCOC(=O)c1ccc(N=Nc2c(N)n[nH]c2N)cc1 [Compound 3a]", "Tested system": "C. violaceum CV026", "Reported measurement": "0.0625 µg/mL"}
{"Compound": "CCOC(=O)c1ccc(N=Nc2c(N=Cc3ccc(N(C)C)cc3)n[nH]c2N)cc1 [Compound 5a]", "Tested system": "C. violaceum CV026", "Reported measurement": "0.187 µg/mL"}
{"Compound": "CCOC(=O)c1ccc(N=Nc2c(N)nn3c(N)c(C#N)c(-c4ccc(N(C)C)cc4)nc23)cc1 [Compound 9a]", "Tested system": "C. violaceum CV026", "Reported measurement": "0.187 µg/mL"}

Then there is this compound:
// sample CCOC(=O)c1ccc(N=Nc2c(N)nn3c(O)c(C#N)c(-c4ccc(N(C)C)cc4)nc23)cc1 [Compound 10a] , its Concentration at which anti-QS activity (visible halo zone) was observed was 0.0625 µg/mL

----------
Exercise: state measured MBC/MIC for each of the compounds provided.
System: A. baumannii DH-243
Test: Broth microdilution MIC/MBC
Format: cell-based, Acinetobacter baumannii
Conditions: value in brackets
One number for each entry.

Examples with answers:
{"Compound": "CCOC(=O)c1ccc(N=Nc2c(N)nn3c2N=C(C)CC3=O)cc1", "Tested system": "A. baumannii DH-243", "Reported measurement": 1}
{"Compound": "CCOC(=O)c1ccc(N=Nc2c(N=Cc3ccc(N(C)C)cc3)n[nH]c2N)cc1", "Tested system": "A. baumannii DH-243", "Reported measurement": 0.5}
{"Compound": "CCOC(=O)c1ccc(N=Nc2c(N)nn(C(O)=CC#N)c2N)cc1", "Tested system": "A. baumannii DH-243", "Reported measurement": 0.5}
{"Compound": "NCC[C@H](O)C(=O)N[C@@H]1C[C@H](N)[C@@H](O[C@H]2O[C@H](CN)[C@@H](O)[C@H](O)[C@H]2O)[C@H](O)[C@H]1O[C@H]1O[C@H](CO)[C@@H](O)[C@H](N)[C@H]1O [AK, Amikacin, reference compound]", "Tested system": "A. baumannii DH-243", "Reported measurement": 4}
{"Compound": "CCOC(=O)c1ccc(N=Nc2c(N)nn3c(-c4ccco4)cc(-c4ccccc4)nc23)cc1", "Tested system": "A. baumannii DH-243", "Reported measurement": 2}

Hi team, please reply with MBC/MIC for each item in this list.
1. CCOC(=O)c1ccc(N=Nc2c(N)nn3c(C)cc(C)nc23)cc1
2. CCOC(=O)c1ccc(N=Nc2c(N)nn3c(N)c(C#N)c(-c4ccc(N(C)C)cc4)nc23)cc1

0.5
0.5

----------
System: E. faecalis DH-5478
Assay: Agar well-diffusion assay
Assay type: cell-based
Settings: Enterococcus faecalis, DH5478; E. faecalis DH-5478; 50 µL of 10 mM per well; read-out: Diameter of Inhibition Zones (AZOI)
Experimental endpoint: zone of inhibition at 10000 µM (mm)
Give bare numbers, in mm.

Examples with answers:
{"Compound": "CCOC(=O)c1ccc(N=Nc2c(N=Cc3ccc(N(C)C)cc3)n[nH]c2N)cc1 [Compound 5a]", "Units label": "mm", "zone of inhibition at 10000 µM": 28.2}
{"Compound": "CCOC(=O)c1ccc(N=Nc2c(N)nn3c(-c4ccc(Cl)cc4)cc(-c4ccccc4)nc23)cc1 [Compound 8c]", "Units label": "mm", "zone of inhibition at 10000 µM": 15.1}
{"Compound": "CCOC(=O)c1ccc(N=Nc2c(N=Cc3ccc(OC)cc3)n[nH]c2N)cc1 [Compound 5b]", "Units label": "mm", "zone of inhibition at 10000 µM": 25.4}
{"Compound": "CCOC(=O)c1ccc(N=Nc2c(N)nn3c(-c4cccs4)cc(-c4ccccc4)nc23)cc1 [Compound 8a]", "Units label": "mm", "zone of inhibition at 10000 µM": 20.6}
{"Compound": "CCOC(=O)c1ccc(N=Nc2c(N)nn3c(N)c(C#N)c(-c4ccc(Cl)cc4)nc23)cc1 [Compound 9c]", "Units label": "mm", "zone of inhibition at 10000 µM": 23.1}
{"Compound": "CCOC(=O)c1ccc(N=Nc2c(N)nn3c(N)c(C#N)c(-c4ccc(OC)cc4)nc23)cc1 [Compound 9b]", "Units label": "mm", "zone of inhibition at 10000 µM": 24.3}

Hi team, please reply with zone of inhibition at 10000 µM for each item in this list.
1. CCOC(=O)c1ccc(N=Nc2c(N)nn3c(C)cc(C)nc23)cc1 [Compound 6]
2. CCOC(=O)c1ccc(N=Nc2c(N)nn3c(-c4ccco4)cc(-c4ccccc4)nc23)cc1 [Compound 8b]

29.5
17.3

----------
Molecular target: hCA-I (Homo sapiens)
Construct: from tissue; host or cells: human erythrocytes (hemolysate)
Experiment: Carbonic anhydrase isoenzyme inhibition assay
Format: biochemical
Conditions: Lineweaver–Burk graphs
Experimental endpoint: pKi
Give bare numbers, as −log10 of the molar value.

{"Compound": "CCOC(=O)c1ccc(N=Nc2c(N)nn3c(O)c(C#N)c(-c4ccc(N(C)C)cc4)nc23)cc1 [Compound 10a]", "Experimental endpoint": "pKi", "Reported measurement": 6.84}

Hi team, please reply with pKi for each item in this list.
1. CCOC(=O)c1ccc(N=Nc2c(N=Cc3ccc(N(C)C)cc3)n[nH]c2N)cc1
2. CCOC(=O)c1ccc(N=Nc2c(N)nn3c(C)cc(C)nc23)cc1
3. CCOC(=O)c1ccc(N=Nc2c(N)nn3c(N)c(C#N)c(-c4ccc(N(C)C)cc4)nc23)cc1
4. CCOC(=O)c1ccc(N=Nc2c(N)n[nH]c2N)cc1

1. 6.75
2. 6.81
3. 6.99
4. 7.05

----------
Molecular target: hCA-II (Homo sapiens)
Assay: Carbonic anhydrase isoenzyme inhibition assay
Experimental endpoint: pIC50
One number for each entry, as −log10 of the molar value.

Examples with answers:
{"Compound": "CCOC(=O)c1ccc(N=Nc2c(N)nn3c(N)c(C#N)c(-c4ccc(N(C)C)cc4)nc23)cc1 [Compound 9a]", "pIC50": 6.85}
{"Compound": "CCOC(=O)c1ccc(N=Nc2c(N)nn3c(C)cc(C)nc23)cc1 [Compound 6]", "pIC50": 6.89}
{"Compound": "CCOC(=O)c1ccc(N=Nc2c(N)n[nH]c2N)cc1 [Compound 3a]", "pIC50": 7.14}
{"Compound": "CCOC(=O)c1ccc(N=Nc2c(N=Cc3ccc(N(C)C)cc3)n[nH]c2N)cc1 [Compound 5a]", "pIC50": 6.79}

// sample CCOC(=O)c1ccc(N=Nc2c(N)nn3c(O)c(C#N)c(-c4ccc(N(C)C)cc4)nc23)cc1 [Compound 10a] , its pIC50 was 6.91

----------
Target: hCA-I (Homo sapiens, UniProt P00915)
Sequence (P00915 whole entry): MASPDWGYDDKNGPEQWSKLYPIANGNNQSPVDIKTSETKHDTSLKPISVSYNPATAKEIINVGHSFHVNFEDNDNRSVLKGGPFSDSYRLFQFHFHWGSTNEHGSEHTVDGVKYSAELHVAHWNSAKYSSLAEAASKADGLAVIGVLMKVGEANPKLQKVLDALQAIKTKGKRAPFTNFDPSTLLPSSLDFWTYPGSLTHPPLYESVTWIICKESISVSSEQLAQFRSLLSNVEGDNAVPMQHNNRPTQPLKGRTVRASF
Experiment: Carbonic anhydrase isoenzyme inhibition assay
Exercise: state measured pIC50 for each of the compounds provided.
Numbers only, as −log10 of the molar value.

{"Compound": "CCOC(=O)c1ccc(N=Nc2c(N=Cc3ccc(N(C)C)cc3)n[nH]c2N)cc1", "Reported measurement": 6.86}

Hi team, please reply with pIC50 for each item in this list.
1. CCOC(=O)c1ccc(N=Nc2c(N)n[nH]c2N)cc1
2. CCOC(=O)c1ccc(N=Nc2c(N)nn3c(C)cc(C)nc23)cc1
3. CCOC(=O)c1ccc(N=Nc2c(N)nn3c(O)c(C#N)c(-c4ccc(N(C)C)cc4)nc23)cc1 [Compound 10a]
4. CCOC(=O)c1ccc(N=Nc2c(N)nn3c(N)c(C#N)c(-c4ccc(N(C)C)cc4)nc23)cc1

7.03
6.77
6.81
6.91

----------
System: A. baumannii DH-243
Exercise: state measured MIC for each of the compounds provided.

{"Compound": "CCOC(=O)c1ccc(N=Nc2c(N)nn3c(N)c(C#N)c(-c4ccc(N(C)C)cc4)nc23)cc1", "Tested system": "A. baumannii DH-243", "Reported measurement": "0.375 µg/mL"}
{"Compound": "CCOC(=O)c1ccc(N=Nc2c(N)nn3c(O)c(C#N)c(-c4ccc(N(C)C)cc4)nc23)cc1 [Compound 10a]", "Tested system": "A. baumannii DH-243", "Reported measurement": "0.375 µg/mL"}

Hi team, please reply with MIC for each item in this list.
1. CCOC(=O)c1ccc(N=Nc2c(N)nn(C(O)=CC#N)c2N)cc1
2. CCOC(=O)c1ccc(N=Nc2c(N)nn3c(O)c(C#N)c(-c4ccc(Cl)cc4)nc23)cc1 [Compound 10b]

2 µg/mL
2 µg/mL
